- Tested Target: human PD-L1 expressed on cell surface (human, UniProt Q9NZQ7 19-290)
- Sequence (Q9NZQ7 19-290 limits assumed): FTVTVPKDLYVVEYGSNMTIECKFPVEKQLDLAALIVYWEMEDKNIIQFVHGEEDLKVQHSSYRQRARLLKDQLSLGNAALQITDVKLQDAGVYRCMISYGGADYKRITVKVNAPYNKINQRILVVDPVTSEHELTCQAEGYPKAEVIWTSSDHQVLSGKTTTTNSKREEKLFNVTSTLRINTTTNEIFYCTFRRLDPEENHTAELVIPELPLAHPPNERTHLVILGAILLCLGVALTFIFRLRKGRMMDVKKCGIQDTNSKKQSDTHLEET
- Assay Explanation: cell-based or functional assay
Quick list: IC50 (nM), Promega PD-1/PD-L1 blockade reporter assay per entry.
Give your result in nM as a bare value.

The cases that follow already have their IC50 (nM), Promega PD-1/PD-L1 blockade reporter assay on record.
• 57B10 (antibody, human IgG1, V domains shown) VH: QEQLEESGGGLVQPEGSLTLTCTASGFSFSDDYYMSWVRQAPGKGLEWIASIYTGSLNTYYATWAKGRFTISLTSSTTVTLQMTSLTAADTATYFCARRNKNADWGHFDLWGPGTLVTVSS VL: YDMTQTPASVEVAVGGTVTIKCQASQSISTALAWYQQKPGQPPKLLIYAASTLASGVPSRFRGSGSGTDFTLTISDLECADAATYYCQQGWTVSSLDNAFGGGTEVVAM = 0.47
• 28B3 (antibody, human IgG1, V domains shown) VH: QSVEESGGRLVTPGTPLTLSCTASGFSLSSYYMIWVRQAPGKGLEYIGYVYTGSGNTWYASWAKGRFAISKASTTVDLMITSPTTEDTATYFCASGADGVYDWGWDIWGPGTLVTVSL VL: DIVMTQTPASVEAAVGDTVTIKCQASQSIYSLLAWYQQKPGQRPKLLIAGASNLESGVPSRFSGSGSGTEYTLTISALECADAATYYCQNNYDSGRIYGLAFGGGTEVVVK = 0.24
• 74A9 (antibody, human IgG1, V domains shown) VH: QSVEESGGRLVTPGTPLTLTCAVSGFSLSTYALGWVRQAPGKGLEWIGSISIGGATYYASWAKGRFTISKTSTTVDLKIASPTTEDTATYFCARNVDSIYLDAFHTWGPGTLVTVSL VL: DIVMTQTPASVEAAVGGTVTIKCQASQNIYNNLAWYQQKPGQPPKLLIYRASTLASGVPSRFKGSGSGTEYTLTISDLECDDAATYYCQTYYLTTTTNAFGGGTEVVVK = 0.29
• 56H3 (antibody, human IgG1, V domains shown) VH: QEQLVESGGGLVQPEGSLTLTCTASEFSFSNNYYMSWVRQAPGKGLEWLGSIGIGSGITDYASWAKGRFTISKASSTTVTLQMTTLTAADTAIYFCARWTSGGGGFGLWGPGTLVTVSS VL: QVLTQTSSPVSAAVGGTVTINCQSSQTIYSDYLFWYQQKPGQPPKLLIYQTSTLASGVPSRFSGSGSGTQFTLTISGVQCDDAATYYCQGYYSGYIWTFGGGTEVVVN = 0.36
• 33H7 (antibody, human IgG1, V domains shown) VH: QEQLVESGGGLVQPEGSLTVTCTASGFDLSRYFYMSWVRQAPGKGLEWIASISTGSDITDYASWAKGRFTISKTSSTTVTLQMTTLTAADTAIYFCARWTSGGGGFGLWGPGTLVTVSS VL: QVLTQTASPVSAAVGGTVTLNCQSSQSIYNNYLSWYQQRAGQPPKLLIYSTATLASGVPSRFKGSGSGTQFTLTISEIQCEDAATYYCQGYYSGYIWTFGGGTEVVVK = 0.52

We next turn to a different binder, shown below.
IC50 (nM), Promega PD-1/PD-L1 blockade reporter assay reading for 56E5 (antibody, human IgG1, V domains shown) VH: QEQLEESGGGLVQPEGSLTLTCTASGFSFSGDYYMSWVRQAPGKGLEWIASIYTGSLNTYYATWAKGRFTISLTSSTTVTLQMTSLTAADTATYFCARRHKNADYGHFDLWGPGTLVTVSS VL: YDMTQTPGSVEVAVGGTVTIKCQASQSINDRLAWYQQTPGQPPKLLIYGASTLASGVPSRFKGSGSGTEFTLTISDLECADAATYYCQQGWTVSSLDNAFGGGTEVVAK : 0.41
